Listing of entries alongside the reported FIC (lowest FIC Index) combined with Lincomycin.
System: P. aeruginosa PA14
Format: cell-based, Pseudomonas aeruginosa
Method: Synergistic effect of the 6 polymyxin B or polymyxin E derivatives in combination with 5 conventional antibacterial agents was detected using the checkerboard method as described on the previous study. Briefly, the serial concentrations of test compounds were prepared by a two-dimensional array. The tested dilutions were based on the MICs of the two different compounds. […]
Bridge positions count the residues as written; N and C are the ends. Square brackets hold non-standard residues; d marks the D form. Peptide text beside a SMILES is read from it. Dab = NCC[C@H](N)C(=O)O
readout name: FIC (lowest FIC Index) combined with Lincomycin

INSERT INTO results (compound, numeric_readout) VALUES
  ('CC(C)C[C@@H]1NC(=O)[C@@H](CC(C)C)NC(=O)[C@H](CCN)NC(=O)[C@@H](NC(=O)[C@H](CCN)NC(=O)[C@@H](N)[C@@H](C)O)CCNC(=O)[C@H]([C@@H](C)O)NC(=O)[C@H](CCN)NC(=O)[C@H](CCN)NC1=O [PENP, polymyxin E nonapeptide] (H-T[Dab][Dab][Dab][dL]L[Dab][Dab]T; lactam 3-C (inferred); N-terminus assumed)', 0.125),
  ('CC(C)C[C@@H]1NC(=O)[C@@H](CC(C)C)NC(=O)[C@H](CCN)NC(=O)[C@@H](NC(=O)[C@@H](N)CCN)CCNC(=O)[C@H]([C@@H](C)O)NC(=O)[C@H](CCN)NC(=O)[C@H](CCN)NC1=O [PEOP, polymyxin E octapeptide] (H-[Dab][Dab][Dab][dL]L[Dab][Dab]T; lactam 2-C (inferred); N-terminus assumed)', 0.141),
  ('CC(C)C[C@@H]1NC(=O)[C@@H](Cc2ccccc2)NC(=O)[C@H](CCN)NC(=O)[C@@H](N)CCNC(=O)[C@H]([C@@H](C)O)NC(=O)[C@H](CCN)NC(=O)[C@H](CCN)NC1=O [PBHP, polymyxin B heptapeptide] (H-[Dab][Dab][dF]L[Dab][Dab]T; lactam 1-C (inferred); N-terminus assumed)', 0.188),
  ('CC(C)C[C@@H]1NC(=O)[C@@H](Cc2ccccc2)NC(=O)[C@H](CCN)NC(=O)[C@@H](NC(=O)[C@@H](N)CCN)CCNC(=O)[C@H]([C@@H](C)O)NC(=O)[C@H](CCN)NC(=O)[C@H](CCN)NC1=O [PBOP, polymyxin B octapeptide] (H-[Dab][Dab][Dab][dF]L[Dab][Dab]T; lactam 2-C (inferred); N-terminus assumed)', 0.094);

----------
Tested on: P. aeruginosa PA14
Format: cell-based, Pseudomonas aeruginosa
Bridge positions count the residues as written; N and C are the ends. Square brackets hold non-standard residues; d marks the D form. Peptide text beside a SMILES is read from it. Dab = NCC[C@H](N)C(=O)O
readout name: FIC (lowest FIC Index) combined with Nisin

INSERT INTO assay_data (molecule, result) VALUES
  ('CC(C)C[C@@H]1NC(=O)[C@@H](Cc2ccccc2)NC(=O)[C@H](CCN)NC(=O)[C@@H](NC(=O)[C@@H](N)CCN)CCNC(=O)[C@H]([C@@H](C)O)NC(=O)[C@H](CCN)NC(=O)[C@H](CCN)NC1=O [PBOP, polymyxin B octapeptide] (H-[Dab][Dab][Dab][dF]L[Dab][Dab]T; lactam 2-C (inferred); N-terminus assumed)', 0.313),
  ('CC(C)C[C@@H]1NC(=O)[C@@H](CC(C)C)NC(=O)[C@H](CCN)NC(=O)[C@@H](NC(=O)[C@@H](N)CCN)CCNC(=O)[C@H]([C@@H](C)O)NC(=O)[C@H](CCN)NC(=O)[C@H](CCN)NC1=O [PEOP, polymyxin E octapeptide] (H-[Dab][Dab][Dab][dL]L[Dab][Dab]T; lactam 2-C (inferred); N-terminus assumed)', 0.313),
  ('CC(C)C[C@@H]1NC(=O)[C@@H](Cc2ccccc2)NC(=O)[C@H](CCN)NC(=O)[C@@H](NC(=O)[C@H](CCN)NC(=O)[C@@H](N)[C@@H](C)O)CCNC(=O)[C@H]([C@@H](C)O)NC(=O)[C@H](CCN)NC(=O)[C@H](CCN)NC1=O [PBNP, polymyxin B nonapeptide] (H-T[Dab][Dab][Dab][dF]L[Dab][Dab]T; lactam 3-C (inferred); N-terminus assumed)', 0.250);

----------
System: P. aeruginosa PA14
Assay type: cell-based, Pseudomonas aeruginosa
Bridge positions count the residues as written; N and C are the ends. Square brackets hold non-standard residues; d marks the D form. Peptide text beside a SMILES is read from it. Dab = NCC[C@H](N)C(=O)O
readout name: FIC (lowest FIC Index) combined with Linezolid

INSERT INTO results (compound, numeric_readout) VALUES
  ('CC(C)C[C@@H]1NC(=O)[C@@H](Cc2ccccc2)NC(=O)[C@H](CCN)NC(=O)[C@@H](NC(=O)[C@H](CCN)NC(=O)[C@@H](N)[C@@H](C)O)CCNC(=O)[C@H]([C@@H](C)O)NC(=O)[C@H](CCN)NC(=O)[C@H](CCN)NC1=O [PBNP, polymyxin B nonapeptide] (H-T[Dab][Dab][Dab][dF]L[Dab][Dab]T; lactam 3-C (inferred); N-terminus assumed)', 0.156),
  ('CC(C)C[C@@H]1NC(=O)[C@@H](CC(C)C)NC(=O)[C@H](CCN)NC(=O)[C@@H](NC(=O)[C@@H](N)CCN)CCNC(=O)[C@H]([C@@H](C)O)NC(=O)[C@H](CCN)NC(=O)[C@H](CCN)NC1=O [PEOP, polymyxin E octapeptide] (H-[Dab][Dab][Dab][dL]L[Dab][Dab]T; lactam 2-C (inferred); N-terminus assumed)', 0.188),
  ('CC(C)C[C@@H]1NC(=O)[C@@H](Cc2ccccc2)NC(=O)[C@H](CCN)NC(=O)[C@@H](NC(=O)[C@@H](N)CCN)CCNC(=O)[C@H]([C@@H](C)O)NC(=O)[C@H](CCN)NC(=O)[C@H](CCN)NC1=O [PBOP, polymyxin B octapeptide] (H-[Dab][Dab][Dab][dF]L[Dab][Dab]T; lactam 2-C (inferred); N-terminus assumed)', 0.078),
  ('CC(C)C[C@@H]1NC(=O)[C@@H](Cc2ccccc2)NC(=O)[C@H](CCN)NC(=O)[C@@H](N)CCNC(=O)[C@H]([C@@H](C)O)NC(=O)[C@H](CCN)NC(=O)[C@H](CCN)NC1=O [PBHP, polymyxin B heptapeptide] (H-[Dab][Dab][dF]L[Dab][Dab]T; lactam 1-C (inferred); N-terminus assumed)', 0.141),
  ('CC(C)C[C@@H]1NC(=O)[C@@H](CC(C)C)NC(=O)[C@H](CCN)NC(=O)[C@@H](N)CCNC(=O)[C@H]([C@@H](C)O)NC(=O)[C@H](CCN)NC(=O)[C@H](CCN)NC1=O [PEHP, polymyxin E heptapeptide] (H-[Dab][Dab][dL]L[Dab][Dab]T; lactam 1-C (inferred); N-terminus assumed)', 0.141),
  ('CC(C)C[C@@H]1NC(=O)[C@@H](CC(C)C)NC(=O)[C@H](CCN)NC(=O)[C@@H](NC(=O)[C@H](CCN)NC(=O)[C@@H](N)[C@@H](C)O)CCNC(=O)[C@H]([C@@H](C)O)NC(=O)[C@H](CCN)NC(=O)[C@H](CCN)NC1=O [PENP, polymyxin E nonapeptide] (H-T[Dab][Dab][Dab][dL]L[Dab][Dab]T; lactam 3-C (inferred); N-terminus assumed)', 0.281);

----------
System: P. aeruginosa PA14
Assay type: cell-based, Pseudomonas aeruginosa
Bridge positions count the residues as written; N and C are the ends. Square brackets hold non-standard residues; d marks the D form. Peptide text beside a SMILES is read from it. Dab = NCC[C@H](N)C(=O)O
Reported FIC (lowest FIC Index) combined with Nisin values follow for various compounds
readout name: FIC (lowest FIC Index) combined with Nisin

INSERT INTO results (compound, numeric_readout) VALUES
  ('CC(C)C[C@@H]1NC(=O)[C@@H](CC(C)C)NC(=O)[C@H](CCN)NC(=O)[C@@H](N)CCNC(=O)[C@H]([C@@H](C)O)NC(=O)[C@H](CCN)NC(=O)[C@H](CCN)NC1=O [PEHP, polymyxin E heptapeptide] (H-[Dab][Dab][dL]L[Dab][Dab]T; lactam 1-C (inferred); N-terminus assumed)', 0.266),
  ('CC(C)C[C@@H]1NC(=O)[C@@H](CC(C)C)NC(=O)[C@H](CCN)NC(=O)[C@@H](NC(=O)[C@H](CCN)NC(=O)[C@@H](N)[C@@H](C)O)CCNC(=O)[C@H]([C@@H](C)O)NC(=O)[C@H](CCN)NC(=O)[C@H](CCN)NC1=O [PENP, polymyxin E nonapeptide] (H-T[Dab][Dab][Dab][dL]L[Dab][Dab]T; lactam 3-C (inferred); N-terminus assumed)', 0.375),
  ('CC(C)C[C@@H]1NC(=O)[C@@H](Cc2ccccc2)NC(=O)[C@H](CCN)NC(=O)[C@@H](N)CCNC(=O)[C@H]([C@@H](C)O)NC(=O)[C@H](CCN)NC(=O)[C@H](CCN)NC1=O [PBHP, polymyxin B heptapeptide] (H-[Dab][Dab][dF]L[Dab][Dab]T; lactam 1-C (inferred); N-terminus assumed)', 0.375);
